- test-protocol: TOR pathway LAP4-GFP level changes – S. cerevisiae, multiplex flow cytometry, primary screen (AID 1873)
- assay-context: S. cerevisiae LAP4-GFP expression, 3 h, at 10 µM, stronger effect = higher value
Inconclusive results are not listed.
Use 90% as the dividing line for GFP response vs DMSO, with the line itself on the class 1 side and lower values as class 0.

>  <molecule>
Cc1ccc2c(c1)C(C)(C)[C@]1(C)NC(=O)CCN21

>  <class-label>
class 1

$$$$
>  <molecule>
CC1(C)CC(=O)C2=C(C1)c1c(ccc3ccccc13)NC2c1ccco1 (stereo unspecified)

>  <class-label>
class 1

$$$$
>  <molecule>
CCOCCCNCc1cn(-c2ccc(F)cc2F)nc1-c1ccccc1C

>  <class-label>
class 1

$$$$

## Input Hi team, for O=C(NC(Nc1ccccn1)C(Cl)(Cl)Cl)c1ccccc1 (stereo unspecified) , is the recorded GFP response vs DMSO at or above 90%?
## Output class 1

## Input Lookup CC12CCC(C(=O)NCc3ccc4c(c3)OCO4)(CC1=O)C2(C)C (stereo unspecified)
## Output class 1

## Input Lookup `Cn1nc(-c2ccc(Cl)cc2)nc2c(=O)n(C)c(=O)nc1-2`
## Output class 1

## Input Lookup `CC(=O)Nc1ccc(S(=O)(=O)c2ccc(N)cc2)cc1`
## Output class 0

## Input Lookup `COc1cc(C(=O)Nc2ccc(N(C)C)cc2)c([N+](=O)[O-])cc1OC`
## Output class 1

---

- test-protocol: TOR pathway LAP4-GFP level changes – S. cerevisiae, multiplex flow cytometry, primary screen (AID 1873)
- assay-context: S. cerevisiae LAP4-GFP expression, 3 h, at 10 µM, stronger effect = higher value
Results filed as inconclusive are left out.
Consider the following compounds and their measured GFP response vs DMSO readings.
Dear colleague, please return just the value in %, with no unit written.

Here are 3 compounds together with their reported answers.
>  <compound>
S=C(c1ccc2c(c1)OCO2)N1CCCCC1

>  <experimental-result>
105

$$$$
>  <compound>
O=C(Cc1ccccc1)NNC(=O)Cc1ccccc1

>  <experimental-result>
94

$$$$
>  <compound>
COC(=O)CSc1nc2ccc(N)cc2s1

>  <experimental-result>
95.3

$$$$

## Input Find the recorded GFP response vs DMSO belonging to `CC(=O)c1c[nH]c2ccc(C)cc2c1=O` and report it.
## Output 114

## Input Lookup COc1ccc(CNC(=O)C2CCCN2C)cc1OC (configuration not stated)
## Output 92.6

## Input Lookup Cc1ccc2c(c1)c(=O)c1c3n2CCN(C(=O)CCl)C3CC1 (configuration not stated)
## Output 106

## Input Lookup COc1ccc(CCN2C(=O)CSC2c2ccc(OC)c(OC)c2)cc1OC (configuration not stated)
## Output 104

## Input Lookup `O=[N+]([O-])c1ccc(O)c2ncccc12`
## Output 375

## Input Lookup `O=C(Nc1ccc(C(=O)NC2CCCCC2)cc1)c1cccnc1`
## Output 119

## Input Lookup `C[C@]12CC[C@@H]3c4ccc(O)cc4CC[C@H]3[C@@H]1CC[C@@H]2OC(=O)CCC(=O)O`
## Output 127

## Input Lookup `COc1ccc(-c2nc(NC(C)=O)sc2-c2ccc(OC)cc2)cc1`
## Output 92.6

---

- test-protocol: rapamycin-like changes in RPL19A-GFP expression – cell-based, S. cerevisiae, multiplex flow cytometry, primary screen (AID 1862);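 also: lower values mimic rapamycin by blocking the RPL19A rise seen in DMSO cells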
- assay-context: S. cerevisiae RPL19A-GFP strain, flow cytometry fluorescence, 3 h; at 10 µM; stronger effect = lower value
Inconclusive results are not listed.
parameter-measured: percent of DMSO control GFP (%)
Dear colleague, please return just the value in %, with no unit written.

>  <compound>
Cc1[nH]c2ccccc2c1/C=C/c1nc2ccccc2c(=O)n1CCO

>  <percent of DMSO control GFP [%]>
102

$$$$
>  <compound>
O=c1c2[nH]c3ccccc3c2ncn1CCC1=CCCCC1

>  <percent of DMSO control GFP [%]>
91.7

$$$$
>  <compound>
C=C(C)[C@@H]1CC=C(CN2CCC(N3CCC(C(=O)N4CCCC4)CC3)CC2)CC1

>  <percent of DMSO control GFP [%]>
105

$$$$
>  <compound>
CN(C)CCOCCOc1ccc(Cl)cc1Br

>  <percent of DMSO control GFP [%]>
93.7

$$$$

Field: next compound
## Input Find the recorded percent of DMSO control GFP belonging to `Cc1ccc(S(=O)(=O)N[C@@H](C)C(=O)N2CCC(C(=O)N3CCC[C@H]3C(=O)O)CC2)cc1` and report it.
## Output 95

---

Consider the following molecules and their measured inhibition readings.
- tested-on: ATP-binding cassette sub-family B member 6 (Homo sapiens)
- test-protocol: blockers of ABCB6-driven porphyrin uptake – K562-ABCB6 cells, flow cytometry, validation set, pilot screen (AID 588550);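 also: 0% = DMSO wells and 100% = benzethonium chloride 70 µM positive control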
- assay-context: K562-ABCB6 porphyrin accumulation, 1 h, at 10 µM, stronger effect = higher value
Dear colleague, please return just the value in %, with no unit written.

>  <molecule>
COc1ccc(C(C)N2CC34C=CC(O3)C(C(=O)OCC(C)C)C4C2=O)cc1 (centres undefined)

>  <parameter-measured>
inhibition

>  <experimental-result>
-4

$$$$

## Input Find the recorded inhibition belonging to `COc1ccc2[nH]c(=O)c(CN(C(=O)c3ccco3)C(C)C)cc2c1` and report it.
## Output 9

## Input Lookup COc1ccc(C2C(C(=O)c3ccco3)=C(O)C(=O)N2CC2CCCO2)cc1 (centres undefined)
## Output 3

## Input Lookup `COc1ccccc1Oc1c(C)oc2c(CN3CCN(CCO)CC3)c(O)ccc2c1=O`
## Output -1

## Input Lookup COc1ccc(C2NCCC3(O)CCCCC23)c(OC)c1OC (centres undefined)
## Output 6

## Input Lookup O=C(CCC1CCCN(C(=O)c2ccsc2)C1)NCc1ccc(F)c(F)c1 (centres undefined)
## Output -8

## Input Lookup `C[C@]12CC[C@@H]3c4ccc(O)cc4CC[C@H]3[C@@H]1CC[C@@H]2OC(=O)CCC(=O)O`
## Output -12

## Input Lookup `CCC(=O)O[C@]1(C(=O)CCl)[C@@H](C)C[C@H]2[C@@H]3CCC4=CC(=O)C=C[C@]4(C)[C@@]3(F)[C@@H](O)C[C@@]21C`
## Output -10

## Input Lookup Cc1ccc(S(=O)(=O)N2CCC(C(=O)N[C@@H](C)C(=O)NC3CCS(=O)(=O)C3)CC2)cc1 (some centres undefined)
## Output 13

---

- Test system: anti-desmoglein-3 scFv antibody binding to human DSG3
- test-protocol: blockers of pathogenic pemphigus antibody–desmoglein-3 binding – biochemical, validation compound set, bead-based, flow cytometry, pilot screen (AID 588368);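 also: signal is the median channel fluorescence of bead-bound GFP antibody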
- assay-context: Protein G beads, DSG3-Fc, scFv-GFP binding, at 10 µM, stronger effect = lower value
parameter-measured: binding (% of control) (%)
Dear colleague, please return just the value in %, with no unit written.

Here are 2 compounds together with their reported answers.
>  <compound>
Cc1ccc(O)c(CCc2ccccc2)n1

>  <binding (% of control) [%]>
98.4

$$$$
>  <compound>
COc1cccc(OCC(O)CO)c1 (stereo not drawn)

>  <binding (% of control) [%]>
99.9

$$$$

Field: next compound
## Input Lookup: binding (% of control) / anti-desmoglein-3 scFv antibody binding to human DSG3 / `C=CCNc1nc2c(c(=O)n(C)c(=O)n2C)n1CC(=C)C`
## Output 104

---

- test-protocol: TOR pathway GLN3 branch reporter MEP2-GFP changes – S. cerevisiae, multiplex flow cytometry, primary screen (AID 1867);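 also: median GFP channel fluorescence of barcode-gated MEP2-GFP cells measured by flow cytometry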
- assay-context: S. cerevisiae MEP2-GFP strain, 3 h, at 10 µM, stronger effect = higher value, 100% means same as DMSO wells
Records with an inconclusive call do not appear.
Consider the following molecules and their measured GFP response vs DMSO readings.
Dear colleague, please return just the value in %, with no unit written.

Here are 4 molecules together with their reported answers.
>  <molecule>
CCOc1ccc(C(=O)NCC2(c3ccccc3)CCOCC2)cc1

>  <GFP response vs DMSO [%]>
97.7

$$$$
>  <molecule>
O=C1Cc2ccccc2C(c2ccccc2)N1 (stereo not given)

>  <GFP response vs DMSO [%]>
108

$$$$
>  <molecule>
CC12CCC(C(=O)NCc3ccc4c(c3)OCO4)(CC1=O)C2(C)C (stereo not given)

>  <GFP response vs DMSO [%]>
98.6

$$$$
>  <molecule>
C=CCNC(=O)c1ccc(-c2cccc([N+](=O)[O-])c2)o1

>  <GFP response vs DMSO [%]>
101

$$$$

## Input Find the recorded GFP response vs DMSO belonging to COc1ccc(CN2CCCC(C(=O)c3ccc(Cl)cc3)C2)cc1Cn1cccn1 (stereo not given) and report it.
## Output 105

## Input Lookup `CCOCC(=O)Nc1ccccc1C(=O)N1CCOCC1`
## Output 130

## Input Lookup `Cc1cccc(Nc2ccccc2C(=O)O)c1C`
## Output 102

## Input Lookup `CC(=O)c1ccc(CCCCCCCCCC(=O)O)s1`
## Output 97.4

## Input Lookup `COc1cc(C(=O)N/C(=C\c2cn(C)c3ccccc23)C(=O)NCCCO)cc(OC)c1OC`
## Output 94.1

## Input Lookup C/C=C/c1ccc(OCCCCN2CC(C)CC(C)C2)c(OC)c1 (stereo not given)
## Output 107

## Input Lookup O=C(O)C1CSC(c2ccco2)N1 (stereo not given)
## Output 103

## Input Lookup `COCCNC(=O)CSc1ccc(Cl)cc1`
## Output 106

## Input Lookup `COc1ccc2[nH]c(=O)c(CNC3CCCCC3)cc2c1`
## Output 103

## Input Lookup CCCNC(C)C(=O)Nc1ccccc1C (stereo not given)
## Output 101

## Input Lookup `O=C(CS(=O)(=O)Cc1ccccc1)NCc1ccc2c(c1)OCO2`
## Output 123

## Input Lookup CC1(C)CC(c2csc(N)n2)CCO1 (stereo not given)
## Output 106

## Input Lookup `O=C(NCCc1c[nH]c2ccccc12)c1cccnc1`
## Output 101

## Input Lookup `O=C1[C@@H]2[C@H](Cc3ccc(O)cc3)N[C@]3(C(=O)Nc4ccccc43)[C@@H]2C(=O)N1c1ccc(F)cc1`
## Output 103

## Input Lookup CC12CCC(C(=O)NCc3ccccn3)(OC1=O)C2(C)C (stereo not given)
## Output 103

## Input Lookup `CC(=O)c1c(C)c(C)c2n1CCn1c(C)ccc1-2`
## Output 107

## Input Lookup `CCOC(=O)C(=Cc1ccccc1OC)C(=O)OCC`
## Output 108

## Input Lookup COc1cc2nc(N3CCN(C(=O)C4CCCO4)CC3)nc(N)c2cc1OC (stereo not given)
## Output 106

## Input Lookup `Cc1cn([C@H]2C=C[C@@H](CO)O2)c(=O)[nH]c1=O`
## Output 104

## Input Lookup CC12COC3(C(=O)Nc4ccc(F)cc4)CC1CCC32C (stereo not given)
## Output 126

## Input Lookup `CN(C)CC/C=C1\c2ccccc2Sc2ccc(Cl)cc21`
## Output 110

## Input Lookup `Cc1ccc(OCCCCn2ccnc2C)c(C)c1`
## Output 99.6

## Input Lookup CC(C)CCC1(CCNC(C)c2cccs2)CCOC(C)(C)C1 (stereo not given)
## Output 108

## Input Lookup COc1ccc(C2C3CCCCC3(O)CCN2C(=O)c2cccs2)cc1 (stereo not given)
## Output 105

## Input Lookup CC(=O)O[C@H]1C[C@@]2(C)[C@@H](C[C@@H](O)[C@H]3[C@@]4(C)CC[C@@H](O)[C@@H](C)C4CC[C@@]32C)/C1=C(\CCC=C(C)C)C(=O)O (stereo not given in full)
## Output 107

## Input Lookup `CC[N+](C)(C)c1cccc(O)c1`
## Output 99.3
